Reported % Inhibition (FS) 3 μM values are given for each entry in this list.
# assay.target: β-secretase(BACE) (Homo sapiens)
# Construct: purchased Panvera
# protocol.text: BACE FS1% Inhibition Assay
# Type: biochemical
# protocol.conditions: 3 μM test compound; FS1 substrate

Field: example entries. Status: answers known.
NC1=Nc2ccc(Oc3ccccc3)cc2CN1CC1CCN(C(=O)C2CCCCC2)CC1 : 70%
CC(C)(C)OC(=O)Nc1cccc(CN2Cc3cc(Oc4ccccc4)ccc3N=C2N)c1 : <30%
CN(C(=O)c1ncoc1C(Cc1ccccc1)N1Cc2cc(Oc3ccccc3)ccc2N=C1N)C1CCCCC1 (centres unmarked) : <30%
NC1=Nc2ccc(Oc3ccccc3)cc2CN1Cc1cccc(C(=O)N2CCCC3CCCCC32)c1 (centres unmarked) : 32%
CN(C(=O)c1cccc(C(CC2CCCCC2)N2Cc3cc(Oc4ccccc4)ccc3N=C2N)c1)C1CCCCC1 (centres unmarked) : 57%

// recorded % Inhibition (FS) 3 μM for CC(C)C(CNC(=O)C12CC3CC(CC(C3)C1)C2)N1Cc2cc(Oc3ccccc3)ccc2N=C1N (centres unmarked) : 128%

// recorded % Inhibition (FS) 3 μM for NC1=Nc2ccc(-c3ccncc3)cc2CN1CCNC(=O)C1CCCCC1 : <30%

// recorded % Inhibition (FS) 3 μM for CCCC(=O)NCCN1Cc2cc(-c3ccccc3C)ccc2N=C1N : 100%

// recorded % Inhibition (FS) 3 μM for CN(CCN1Cc2cc(Oc3ccccc3)ccc2N=C1N)C1CCCCC1 : <30%

// recorded % Inhibition (FS) 3 μM for CC(C)(C)C(=O)Nc1cccc(CN2Cc3cc(Oc4ccccc4)ccc3N=C2N)c1 : <30%

// recorded % Inhibition (FS) 3 μM for CC(C)(C)C(=O)NCCN1Cc2cc(-c3ccccc3F)ccc2N=C1N : 97%

// recorded % Inhibition (FS) 3 μM for CC(C)(C)C(=O)NCCN1Cc2cc(-c3ccccc3Cl)ccc2N=C1N : 101%

// recorded % Inhibition (FS) 3 μM for NC1=Nc2ccc(Oc3ccccc3)cc2CN1CCCNC1CCCCC1 : 66%

###

# assay.target: β-secretase(BACE) (Homo sapiens, UniProt P56817)
# Construct: purchased Panvera
# Sequence (P56817 46-501): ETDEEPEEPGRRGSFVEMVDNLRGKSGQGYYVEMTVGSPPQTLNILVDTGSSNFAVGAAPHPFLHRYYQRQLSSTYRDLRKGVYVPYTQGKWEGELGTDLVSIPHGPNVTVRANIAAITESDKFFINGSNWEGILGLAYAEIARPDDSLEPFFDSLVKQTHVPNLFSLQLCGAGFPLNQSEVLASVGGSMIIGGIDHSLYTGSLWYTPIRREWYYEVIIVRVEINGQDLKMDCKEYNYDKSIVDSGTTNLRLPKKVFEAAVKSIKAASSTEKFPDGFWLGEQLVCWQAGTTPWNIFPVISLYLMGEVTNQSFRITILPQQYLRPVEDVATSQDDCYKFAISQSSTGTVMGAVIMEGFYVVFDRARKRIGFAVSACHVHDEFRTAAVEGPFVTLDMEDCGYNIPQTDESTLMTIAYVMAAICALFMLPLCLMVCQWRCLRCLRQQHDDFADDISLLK
# protocol.text: BACE FS1% Inhibition Assay
# Type: biochemical
# protocol.conditions: 3 μM test compound; FS1 substrate; read-out: % Inhibition (FS) 3 μM
Reported inhibition at 3 µM values are given for each entry in this list.
Return type: number; implicit unit %.

Field: example entries. Status: answers known.
COc1ccccc1C(=O)NCCN1Cc2cc(Oc3ccccc3)ccc2N=C1N : 91
CN(C(=O)c1cccc(CN2Cc3cc(-c4ccccc4)ccc3N=C2N)c1)C1CCCCC1 : 114
CCCCCC(CCC(=O)NC1CCCCC1)N1Cc2cc(Oc3ccccc3)ccc2N=C1N (centres unmarked) : 111
NC1=Nc2ccc(Oc3ccccc3)cc2CN1Cc1cccc(C(=O)N(C2CCCCC2)C2CCCCC2)c1 : 114
CCCC(CCC)C(=O)NCC(C1CCCCC1)N1Cc2cc(Oc3ccccc3)ccc2N=C1N (centres unmarked) : 108

// recorded inhibition at 3 µM for NC1=Nc2ccc(-c3ccccc3)cc2CN1CCNC(=O)C1CCCCC1 : 110

// recorded inhibition at 3 µM for NC1=Nc2ccc(Oc3ccccc3)cc2CN1C(Cc1ccccc1)c1ocnc1C(=O)NC1CCCCC1 (centres unmarked) : 56

// recorded inhibition at 3 µM for Cc1cccc(-c2ccc3c(c2)CN(Cc2cccc(C(=O)N(C)C4CCCCC4)c2)C(N)=N3)c1 : 111

###

Reported IC50 values are given for each entry in this list.
# assay.target: β-secretase(BACE) (Homo sapiens)
# Construct: purchased Panvera
# protocol.text: BACE Assay-1 (MCA-substrate, IC50)
# Assay type: biochemical
# protocol.conditions: procedure of Example 158; read-out: IC50 μM (158)

// recorded IC50 for CN(C(=O)CCCCN1Cc2cc(C(=O)c3ccccc3)ccc2N=C1N)C1CCCc2ccccc21 (stereo not shown) : 2.3 µM

// recorded IC50 for NC1=Nc2ccc(C(=O)c3ccccc3)cc2CN1CCCCNC(=O)C1CCCCC1 : 11 µM

// recorded IC50 for NC1=Nc2ccc(Oc3ccccc3)cc2CN1[C@@H](CNC(=O)C1CCCCC1)C1CCCCC1 : 0.012 µM

###

# assay.target: β-secretase(BACE) (Homo sapiens, UniProt P56817)
# Construct: purchased Panvera
# protocol.text: BACE FS1% Inhibition Assay
# Format: biochemical
# protocol.conditions: 1 μM test compound; FS1 substrate
Threshold check on % Inhibition (FS): strictly below 60% is True; on or above 60% is False.

Solved cases (3 shown):
CC(C)(C)C(=O)NCCN1Cc2cc(-c3cnc4ccccc4c3)ccc2N=C1N [Compound 674] : True
CC(C)CCC(=O)NCCN1Cc2cc(-c3cnc4ccccc4c3)ccc2N=C1N [Compound 675] : True
NC1=Nc2ccc(-c3ccccc3)cc2CN1CCNC(=O)C1CCC(C(F)(F)F)CC1 (centres unmarked) [Compound 701] : True

Prompt: Check if % Inhibition (FS) falls below 60% for NC1=Nc2ccc(-c3cnc4ccccc4c3)cc2CN1CCNC(=O)C1CCCC1 [Compound 671] .
Completion: True

Prompt: Check if % Inhibition (FS) falls below 60% for CC(C)N1CCC(N(C)C(=O)CC[C@@H](C2CCCCC2)N2Cc3cc(Oc4ccccc4)ccc3N=C2N)CC1 [Compound 728] .
Completion: True

Prompt: Check if % Inhibition (FS) falls below 60% for NC1=Nc2ccc(-c3ccc4ccccc4c3)cc2CN1CCNC(=O)C1CCC1 [Compound 663] .
Completion: True

Prompt: Check if % Inhibition (FS) falls below 60% for CCCCC(CC)C(=O)NCCN1Cc2cc(-c3cnc4ccccc4c3)ccc2N=C1N (centres unmarked) [Compound 676] .
Completion: True

Prompt: Check if % Inhibition (FS) falls below 60% for NC1=Nc2ccc(-c3ccc4ccccc4c3)cc2CN1CCNC(=O)C12CC3CC(CC(C3)C1)C2 [Compound 665] .
Completion: True

Prompt: Check if % Inhibition (FS) falls below 60% for COc1cccc(F)c1-c1ccc2c(c1)CN(CCNC(=O)C1CCOCC1)C(N)=N2 [Compound 699] .
Completion: False

Prompt: Check if % Inhibition (FS) falls below 60% for CC(CC(=O)NCCN1Cc2cc(-c3ccccc3)ccc2N=C1N)C(F)(F)F (centres unmarked) [Compound 685] .
Completion: False

###

# assay.target: β-secretase(BACE) (Homo sapiens, UniProt P56817)
# Construct: purchased Panvera
# protocol.text: BACE FS1% Inhibition Assay
# Format: biochemical
# protocol.conditions: 0.3 μM test compound; FS1 substrate; read-out: % Inhibition (FS) 0.3 μM
value.kind: inhibition at 0.3 µM (%)
Return type: number; implicit unit %.

Field: example entries. Status: answers known.
COc1ccc(NC(=O)C(C)(C)C)c(-c2ccc3c(c2)CN(Cc2cccc(C(=O)N(C)C4CCCCC4)c2)C(N)=N3)c1 : 51
CONC1=Nc2ccc(-c3ccccc3OC)cc2CN1Cc1cccc(C(=O)N(C)C2CCCCC2)c1 : 47
COc1cccc(F)c1-c1ccc2c(c1)CN(CCNC(=O)C1CCCCC1)C(N)=N2 : 55
CN(C(=O)CC[C@@H](CO)N1Cc2cc(Oc3ccccc3)ccc2N=C1N)C1CCCCC1 : 42
CN(CCN1Cc2cc(Oc3ccccc3)ccc2N=C1N)C(=O)OC(C)(C)C : 46

Fill in: β-secretase(BACE) (Homo sapiens, UniProt P56817) inhibition at 0.3 µM for CCCC(CCC)C(=O)NCCN1Cc2cc(Oc3ccccc3)ccc2N=C1N = 48

Fill in: β-secretase(BACE) (Homo sapiens, UniProt P56817) inhibition at 0.3 µM for COc1ccccc1-c1ccc2c(c1)CN(Cc1cccc(C(=O)N(C)C3CCCCC3)c1)C(N)=N2 = 100

Fill in: β-secretase(BACE) (Homo sapiens, UniProt P56817) inhibition at 0.3 µM for Cc1ccccc1-c1ccc2c(c1)CN(CCNC(=O)C1CCCCC1)C(N)=N2 = 83

Fill in: β-secretase(BACE) (Homo sapiens, UniProt P56817) inhibition at 0.3 µM for CN(C(=O)CCC(C1CCC(O)CC1)N1Cc2cc(Oc3ccccc3)ccc2N=C1N)C1CCCCC1 (stereo not shown) = 115

Fill in: β-secretase(BACE) (Homo sapiens, UniProt P56817) inhibition at 0.3 µM for COc1ccccc1-c1ccc2c(c1)CN(C(CCC(=O)N(C)C1CCCCC1)C1CCCCC1)C(N)=N2 (stereo not shown) [Compound 227] = 86

###

# assay.target: β-secretase(BACE) (Homo sapiens, UniProt P56817)
# Construct: purchased Panvera
# protocol.text: BACE FS1% Inhibition Assay
# Format: biochemical
# protocol.conditions: 3 μM test compound; FS1 substrate; read-out: % Inhibition (FS)
value.kind: inhibition at 3 µM (%)
Return type: number; implicit unit %.

CCCN1Cc2cc(Oc3cccc(NCc4ccc(C)cc4)c3)ccc2N=C1N : 100
NC1=Nc2ccc(Oc3ccccc3)cc2CN1[C@@H](CCC(=O)N(CCO)C1CCCCC1)C1CCCCC1 : 135
CC(C)(C)C(=O)NCCN1Cc2cc(Br)ccc2N=C1N : 32

Kindly consider the entry below.
// recorded inhibition at 3 µM for Cc1cc(CN(C)C(=O)CC[C@@H](C2CCCCC2)N2Cc3cc(-c4ccccc4F)ccc3N=C2N)on1 : 111
